Origin of measurements: ChEMBL document CHEMBL1649156

- Test system: Tissierella praeacuta
- assay_procedure: Antimicrobial activity in Clostridium hastiforme by CLSI agar dilution method
- Type: functional
measured_quantity: MIC (µg/mL)

>>> value_observed("CCC[C@@H]1C[C@@H](C(=O)N[C@@H]([C@H]2O[C@H](SC)[C@H](O)[C@@H](O)[C@H]2O)[C@H](C)Cl)N(C)C1")
0.06
>>> value_observed("C[C@@H](O)[C@H]1C(=O)N2C(C(=O)O)=C(SCCNC=N)C[C@H]12 [IMIPENEM ANHYDROUS]")
2
>>> value_observed("C[C@@H](O)[C@H]1C(=O)N2C(C(=O)O)=C(S[C@H]3CC[S@@+]([O-])C3)S[C@H]12")
2
>>> value_observed("Cc1ncc([N+](=O)[O-])n1CCO")
0.25
